# System: HT-29 (colon adenocarcinoma)
# ASSAY_EXPLANATION: Cell growth inhibition, MTT assay, HT-29, without or with verapamil
# Type: cell-based, human
# TEST_PARAMETERS: mean ± SD, Table S1, in the presence of verapamil (10 µM)
MEASURED_PROPERTY: IC50 (nM)

INSERT INTO assay_data (compound, measured_property, measurement) VALUES
  ('CSc1cc(-c2nnnn2-c2ccc3c(c2)c(C=O)cn3C)cc(Cl)n1 [Compound 14]', 'IC50', 33.1),
  ('CSc1cc(-c2nnnn2-c2ccc3c(c2)c(C#N)cn3C)cc(SC)n1 [Compound 23]', 'IC50', 928),
  ('Cn1ccc2cc(-n3nnnc3-c3cc(Cl)nc(Cl)c3)ccc21 [Compound 8]', 'IC50', 52.4),
  ('Cn1cc(C=O)c2cc(-n3nnnc3-c3cc(Cl)nc(Cl)c3)ccc21 [Compound 12]', 'IC50', 56.5),
  ('CSc1cc(-c2nnnn2-c2ccc3c(ccn3C)c2)cc(SC)n1 [Compound 11]', 'IC50', 257),
  ('CSc1cc(-c2nnnn2-c2ccc3c(c2)c(C=NO)cn3C)cc(SC)n1 [Compound 19]', 'IC50', 359),
  ('CSc1cc(-c2nnnn2-c2ccc3c(c2)c(C=NO)cn3C)cc(Cl)n1 [Compound 18]', 'IC50', 150);

Values compiled from paper PMC10342533.
